Each recorded value in this set is attributed to patent US20130288983A1.

Target: T1, Activin A (Homo sapiens (Human), UniProt P08476 311-426)
T1 sequence: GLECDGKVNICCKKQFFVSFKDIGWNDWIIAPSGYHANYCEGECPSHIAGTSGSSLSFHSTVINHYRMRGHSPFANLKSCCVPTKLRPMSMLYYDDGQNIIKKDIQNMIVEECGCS
Test: Biacore SPR grade, COS transient conditioned media, 20 nM activin A
test_readout: normalized SPR signal

{"columns": ["binder", "test_readout", "value_measured"],
 "data": [
  ["ActRIIB-IgG1 Fc E28A, linker GGGGS (Fc fusion, Tested from conditioned media) SGRGEAETRACIYYNANWELERTNQSGLERCEGEQDKRLHCYASWRNSSGTIELVKKGCWLDDFNCYDRQECVATEENPQVYFCCCEGNFCNERFTHLPEAGGPEVTYEPPPTAPTGGGGSAPELLGGPSVFLFPPKPKDILMISRTPEVTCVVVDVSHEDPEVKFNWYVGGVEVHNAKTKPREEQYNSTYRVVSVLTVLHQDWLNGKEYKCKVSNKALPAPIEKTISKAKGQPREPQVYTLPPSRDELTKNQVSLTCLVKGFYPSDIAVEWESNGQPENNYKTTPPVLDSDGSFFLYSKLTVDKSRWQQGNVFSCSVMHEALHNHYTQKSLSLSPGK", "normalized SPR signal", "5 to 10 ru"]
]}

From here, focus on the item given below.
Short answer for ActRIIB-IgG1 Fc R40K, linker GGGGS (Fc fusion, Tested from conditioned media) SGRGEAETRECIYYNANWELEKTNQSGLERCEGEQDKRLHCYASWRNSSGTIELVKKGCWLDDFNCYDRQECVATEENPQVYFCCCEGNFCNERFTHLPEAGGPEVTYEPPPTAPTGGGGSAPELLGGPSVFLFPPKPKDILMISRTPEVTCVVVDVSHEDPEVKFNWYVGGVEVHNAKTKPREEQYNSTYRVVSVLTVLHQDWLNGKEYKCKVSNKALPAPIEKTISKAKGQPREPQVYTLPPSRDELTKNQVSLTCLVKGFYPSDIAVEWESNGQPENNYKTTPPVLDSDGSFFLYSKLTVDKSRWQQGNVFSCSVMHEALHNHYTQKSLSLSPGK : normalized SPR signal was 10 to 20 ru
